Reference source: PubChem BioAssay (NCI)

test system: HCT-116 colon; experiment: NCI tumour cell line growth inhibition, 48 h
Measured TGI by item

compound | targetOrTestSystem | TGI
O=c1c(F)cn(Cc2ccc(C34CC5CC(CC(C5)C3)C4)c(O)c2)c(=O)n1Cc1ccc(C23CC4CC(CC(C4)C2)C3)c(O)c1 | HCT-116 colon | 25 µM
CC(C)C1=Cc2ccc3c(c2C(=O)C1=O)CCCC3(C)C | HCT-116 colon | 3.33 µM
O=C(O)c1ccccc1CC(Cc1ccc2c(c1)CCC2)C(=O)O (stereo not given) | HCT-116 colon | > 100 µM
Cc1nnc(Nc2ccc(NC(=O)Nc3ccc(Cl)cc3)cc2)c2ccccc12 | HCT-116 colon | 3.59 µM
C=C(C(=O)OCC)C(=O)OCC | HCT-116 colon | > 100 µM

* * *

Measured TGI by item
system: SR leukemia; test: NCI tumour cell line growth inhibition, 48 h
propertyName: TGI

compound | propertyName | measured
COC(=O)c1ccc2c(c1)C(=O)c1c-2n(CCCN=[N+]=[N-])c(=O)c2cc(OC)c(OC)cc12 | TGI | 56 µM
COc1ccc(C(=O)Nc2ccc(O)c(=O)cc2)cc1 | TGI | 31.4 µM
S=c1c2cn[nH]c2nc2scc(-c3ccc(Cl)cc3)n12 | TGI | 28.9 µM
C[C@H](CCC(=O)O)[C@H]1CC[C@H]2[C@@H]3C(=O)C[C@@H]4C[C@H](O)CC[C@]4(C)[C@H]3C[C@H](O)[C@]12C | TGI | > 100 µM
CN(C)C1CCN(C(=O)c2ccc(NC(=O)Nc3ccc(-c4nc(N5CCOCC5)c5cccn5n4)cc3)cc2)CC1 | TGI | > 54 µM
O=C(/C=C/c1ccc[nH]1)c1ccc(-n2ccc(C(F)(F)F)n2)cc1 | TGI | > 100 µM
O=C(NCP(=O)(Oc1ccccc1)Oc1ccccc1)OCc1ccccc1 | TGI | > 100 µM
O=S(=O)(O)C(CO)c1ccccc1 (stereo not given) (tested in a mixture with another compound) | TGI | > 100 µM
COC(=O)C1CCCC2(C1)OCCO2 (stereo not given) | TGI | > 100 µM
COc1ccc2nc3ccccc3c(NCc3ccc(F)cc3)c2c1 | TGI | 5.75 µM
O=C(/C=C/c1ccccc1)Oc1ccc(C(=O)/C=C/c2ccccc2)cc1 | TGI | 6.82 µM
COC1=CC(=O)c2c(c(-c3nc(C)cs3)cn2C)C1=O | TGI | > 50.8 µM
COC(=O)[C@]12CC[C@@H](C)[C@H](C)[C@@H]1C1=CC[C@@H]3[C@@]4(C)C[C@@H](O)[C@H](O)[C@@](C)(CO)C4=CC[C@@]3(C)[C@]1(C)CC2 | TGI | 37.4 µM
CC1(C)OC[C@@H](O)[C@H](C#N)CO1 | TGI | > 100 µM
COC(=O)C(Cc1ccc2c(c1)CCC2)Cc1ccc2c(c1)CCC2 | TGI | > 100 µM
Cc1ccc(S(=O)(=O)n2c3c(c4ccccc42)CCN2C[C@H]([C@H](C)Br)CC[C@@H]32)cc1 | TGI | > 100 µM
COc1ccc(-c2nnc3n(C)c(=O)c4ccccc4n23)cc1N | TGI | > 100 µM
C=CCn1c(=O)c(C(=O)Nc2nc(C34CC5CC(CC(C5)C3)C4)cs2)c(O)c2ccccc21 | TGI | > 100 µM
Cc1nc(C)c(N2CCN([N+](=O)[O-])CC2)c(=O)[nH]1 | TGI | > 100 µM
C=CCc1cc(-c2nc(=S)[nH][nH]2)ccc1N=NNc1ccc(C(=O)O)cc1 | TGI | > 100 µM
